- Tested on: NCI-H460
- measurement_description: NCI tumour cell line growth inhibition, 48 h
Activity calls are given as the source filed them. No stated cut-off is given here; in the data, active = GI50 up to about 1.1 µM and inactive = higher.
Your reply should match one of these outcome classes. t for active, f for inactive

The examples below pair each entry with its known result.
compound	cat
CC(C)c1cccc(C(C)C)c1NC(=O)C(=O)CC(=O)CC(c1ccccc1)c1c(O)oc2ccccc2c1=O (stereo not given)	f
COC(=O)c1sc2ncc3c(c2c1N)CC(C)CC3 (stereo not given)	f
CCOc1cc2c[n+](C)c3c4cc(OC)c(OC)cc4ccc3c2cc1OC	f
O=C(O)c1cc2ccccc2c(S(=O)(=O)O)c1O	f
O=C(c1cc2ccccc2[nH]1)N1C2CCC1CN(CCOC(c1ccc(F)cc1)c1ccc(F)cc1)CC2 (stereo not given)	f
COC(=O)Cc1c(C2=Nc3ccccc3C2(O)CC(=O)OC)[nH]c2ccccc12 (stereo not given)	f

I'd appreciate the recorded outcome for O=C1NCC(NC(=O)C(F)(F)F)c2c(Br)sc(Br)c21 (stereo not given) from this test.
f

What classification did Cc1cc(NC(=O)NC(=O)c2ccccc2N(C)C)ccc1Oc1ncc(Br)cn1 end up with in this test?
t

How did this test come out for C[C@]12CCC(=O)C=C1CC[C@@H]1[C@@H]2CC[C@]2(C)C(=O)/C(=C\c3ccccc3)C[C@@H]12 ?
f

Field: outcome | Entry: COc1cc(OC)c2c(=O)c(OC)c(-c3ccc4c(c3)OCO4)oc2c1OC
f

====

- Test system: NCI-H226
- measurement_description: NCI tumour cell line growth inhibition, 48 h
The source made the active and inactive calls. Rule as the data show it: active = GI50 up to about 1.1 µM and inactive = higher.
reported_endpoint: GI50

The cases that follow already have their GI50 on record.
compound	system	GI50
O=c1nc2occc2cn1C1CC(O)C(CO)O1 (stereo not given)	NCI-H226	> 100 µM (inactive)
O=S(=O)(O)c1ccc(/N=N/c2ccc(/N=N/c3c(O)ccc4ccccc34)cc2)cc1	NCI-H226	> 100 µM (inactive)
COc1ccc(C(=O)c2ccc(-n3cc(/C=C/[N+](=O)[O-])c4ccccc43)cc2)cc1	NCI-H226	> 51.5 µM (inactive)
COc1cc2c(oc(=O)c3c4occc4cc(OC)c23)c2cccc(OCc3ccccc3)c12	NCI-H226	> 100 µM (inactive)

In the following, a different compound is considered.
Recorded GI50 of CCN(CCCN(CC)C(=O)Nc1c(C)cccc1C)C(=O)Nc1c(C)cccc1C , please.
> 100 µM (inactive)

====

- Test system: UACC-62
- measurement_description: NCI tumour cell line growth inhibition, 48 h
Activity calls are given as the source filed them. No stated cut-off is given here; in the data, active = GI50 up to about 1.1 µM and inactive = higher.
I would appreciate it if you answered using one of these outcomes: 1 (active), 0 (inactive)

Previously resolved entries follow.
compound	cat
O=CN/C=C/c1cccc(O)c1	0
C=C1C(=O)OC2C1CC1OC2C(C)CCC/C(C)=C\CCC1(C)O (centres undefined)	0
CCCCCCCCCCCCOC1C(COCCN2CCCC2)OC2OC(C)(C)OC21 (centres undefined)	0
O=C1NCC(NC(=O)C(F)(F)F)c2c(Br)sc(Br)c21 (centres undefined)	0
N#Cc1ccc(CSC2=C(c3ccc(Cl)cc3)S/C(=C3\SC(SCc4ccc(C#N)cc4)=C(c4ccc(Cl)cc4)S3)S2)cc1	0
OC(/C(=N/c1ccccc1)c1ccccc1)c1ccccc1 (centres undefined)	0
CN(C)CCn1c(=O)c2ccc3c4c(nn3CCN(C)C)c3cc([N+](=O)[O-])ccc3n(c1=O)c24	1
CC(=O)N1CC[N+](C)(CCCCN2c3ccccc3Sc3cc(N=[N+]=[N-])ccc32)CC1	0

Dear colleague, could you share the recorded outcome for CC1=CC(=O)/C(=C/Nc2nc(-c3ccc([N+](=O)[O-])cc3)cs2)C(=O)O1 when you have a moment?
0

Fill in: this test's call for COc1ccc(COCC[C@H](C)OC2OC(CO)C(O)C(O)C2O)cc1 (some centres undefined) is ___
0

Returns: the outcome recorded for c1ccc2c(c1)Sc1ccccc1N2C1CN2CCC1CC2 (centres undefined) in this assay.
0

Query: recorded result category for C/C(=C\[C@H]1C[C@@H]([C@@H]2CC[C@]34C[C@]23C=C[C@@H]2[C@@]3(C)CC=C5C[C@@H](c6ccccc6)OC[C@]5(C)[C@@H]3C[C@@H](O)[C@]24C)C(=O)O1)CO in this test
0

State the result this test recorded for N#C/C(=C\c1cc2ccccc2c2ccccc12)c1ccccc1 .
0
